# Test system: SRPK1
# MEASUREMENT_PARAMETERS: concentration: 1 μM, replicates: in singlicate; n = 1;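 note: KINOMEscan kinase panel screen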
I'd be grateful if you could share measured %Inh for these entries.
# output: numeric value plus its unit

# %Inh measured on SRPK1 for item Cc1c(Cn2c(C)nn3c(=O)cc(N4CCOC(C)C4)nc23)cccc1C(F)(F)F (stereo not drawn) = 32%

# %Inh measured on SRPK1 for item O=C1NC(=O)C(N2CCc3ccccc32)=C1c1cccc(Cl)c1 = 14%

# %Inh measured on SRPK1 for item CCc1nc(-c2cccc(C)c2)c(-c2ccnc(NCc3ccccc3)c2)s1 = 1%

# %Inh measured on SRPK1 for item O=C(NCCCN1CCOCC1)c1cccc(Nc2nccc(Nc3ccc(Oc4ccccc4)cc3)n2)c1 = 25%

# %Inh measured on SRPK1 for item CCn1cnc2c(N)ncnc21 = 24%

# %Inh measured on SRPK1 for item CN1c2ccc(NCc3ccc(F)cc3)cc2-c2c(cnn2C)S1(=O)=O = 0%

# %Inh measured on SRPK1 for item Nc1nccc(-c2c(-c3ccc(F)cc3)ncn2C2CCN(CC(F)(F)F)CC2)n1 = 19%

# %Inh measured on SRPK1 for item Fc1ccc(-c2ncn(CCCN3CCOCC3)c2-c2cccnc2)cc1 = 0%

# %Inh measured on SRPK1 for item COC(=O)Nc1nc2cc(Oc3ccc(NC(=O)Nc4cc(F)ccc4F)cc3)ccc2[nH]1.Cl = 0%

* * *

# System: LKB1
# Construct: gene STK11
# MEASUREMENT_PARAMETERS: concentration: 1 μM, replicates: in singlicate; n = 1
So basically: is %Inh under 5%? Then 1. Not under? Then 0.

## Task Below 5% on %Inh? Entry Cl.Oc1cccc(Nc2ccnc3cc(-c4ccncc4)ccc23)c1
## Result 1

## Task Below 5% on %Inh? Entry COc1ccc(Nc2nccc(N3CCC(NC(=O)Nc4cc(C)ccc4C)C3)n2)cc1 (centres unmarked)
## Result 1

## Task Below 5% on %Inh? Entry Cc1nnc(-c2ccc3occ(-c4ccc(C(C)O)cc4)c3c2)o1 (centres unmarked)
## Result 0

## Task Below 5% on %Inh? Entry NS(=O)(=O)c1cccc(-c2ccc3nccc(-c4cccc(S(N)(=O)=O)c4)c3c2)c1
## Result 1

## Task Below 5% on %Inh? Entry O=C(Nc1n[nH]c2cc(-c3cccc(F)c3)ccc12)C1CC1
## Result 1

## Task Below 5% on %Inh? Entry Cn1cc(-c2ccc3c(c2)CCN3C(=O)Cc2ccccc2Cl)c2c(N)ncnc21
## Result 0

## Task Below 5% on %Inh? Entry Nc1nc(-c2ccc3c(N)n[nH]c3c2)cc(N2CCCC2)n1
## Result 1

## Task Below 5% on %Inh? Entry Cc1cccc(Cn2ccn3c(=O)cc(N4CCOCC4)nc23)c1
## Result 0

## Task Below 5% on %Inh? Entry COC(=O)Nc1nc2cc(Oc3ccc(NC(=O)Nc4cc(F)ccc4F)cc3)ccc2[nH]1.Cl
## Result 1

## Task Below 5% on %Inh? Entry COc1ccc(CNC(=O)NC2CCN(c3ccnc(Nc4ccc(OC)cc4)n3)C2)cc1 (centres unmarked)
## Result 0

## Task Below 5% on %Inh? Entry NS(=O)(=O)CCc1cccc(Nc2nccc(-c3c(-c4cccc(NC(=O)c5c(F)cccc5F)c4)nn4ccccc34)n2)c1
## Result 1

## Task Below 5% on %Inh? Entry COc1ccc(S(=O)(=O)NC2CCN(c3cc(C)nc(Nc4cccc(C#N)c4)n3)CC2)cc1.O=C(O)C(F)(F)F
## Result 0

## Task Below 5% on %Inh? Entry CC(C)Oc1ccc2c(-c3ccnc(Nc4ccc(N5CCN(C)CC5)cc4)n3)cnn2n1
## Result 0

## Task Below 5% on %Inh? Entry Fc1ccc(-c2nn3c(OCC(F)(F)F)cccc3c2-c2ccncc2)cc1
## Result 0

## Task Below 5% on %Inh? Entry Cc1c2ccc(N(C)c3ccnc(Nc4cccc(S(N)(=O)=O)c4)n3)cc2nn1Cc1ccccc1.Cl.Cl
## Result 0

## Task Below 5% on %Inh? Entry Cn1ccc2ncnc(Oc3ccc(NC(=O)Nc4ccncc4)c(Cl)c3)c21
## Result 0

## Task Below 5% on %Inh? Entry Cc1c(Cn2c(C)nn3c(=O)cc(N4CCOC(C)C4)nc23)cccc1C(F)(F)F (centres unmarked)
## Result 1

## Task Below 5% on %Inh? Entry c1ccc(-c2n[nH]cc2-c2ccnc3ccccc23)nc1
## Result 0

## Task Below 5% on %Inh? Entry COc1cc2c(cc1OCCN1CCN(C)CC1)ncc1c3ccc(C#N)cc3[nH]c21
## Result 0

## Task Below 5% on %Inh? Entry N#Cc1ccc(-c2cc(-c3c[nH]nc3-c3ccccn3)ccn2)cc1
## Result 1

## Task Below 5% on %Inh? Entry O=c1cc(N2CCOCC2)nc2n(Cc3cccc(F)c3)ccn12
## Result 1

## Task Below 5% on %Inh? Entry CSc1ccc(-c2cc3ncnc(SCC(=O)O)c3s2)cc1
## Result 1

## Task Below 5% on %Inh? Entry C[C@@H](Oc1cc(-n2cnc3ccc(NC(=O)NC(C)(C)C)cc32)sc1C(N)=O)c1ccccc1Cl
## Result 1

## Task Below 5% on %Inh? Entry CC(=O)Nc1ccc(COc2ccc(Nc3ccnc4cc(-c5ccccn5)ccc34)cc2)cc1.Cl
## Result 0

## Task Below 5% on %Inh? Entry Cc1nnc(-c2ccc(C)c(-c3ccc(C(=O)Nc4ccc(NS(C)(=O)=O)cc4)cc3)c2)o1
## Result 0

## Task Below 5% on %Inh? Entry NCC(NC(=O)c1cc(-c2cn[nH]c2)c(-c2ccnc3[nH]ccc23)s1)c1ccccc1.O=C(O)C(F)(F)F.O=C(O)C(F)(F)F (centres unmarked)
## Result 0

## Task Below 5% on %Inh? Entry N#Cc1c(N2CCOCC2)sc(-c2ccn[nH]2)c1-c1ccc(Cl)cc1
## Result 0

## Task Below 5% on %Inh? Entry Cc1cccc(-c2nc(-c3ccc(S(C)(=O)=O)cc3)sc2-c2ccncc2)c1
## Result 1

## Task Below 5% on %Inh? Entry COc1cc(Nc2nccc(N3CCC(NC(=O)c4cccc(NC(C)=O)c4)C3)n2)cc(OC)c1OC (centres unmarked)
## Result 1

## Task Below 5% on %Inh? Entry O=c1cc(N2CCOCC2)nc2n(Cc3cccc(C(F)(F)F)c3)ccn12
## Result 0

## Task Below 5% on %Inh? Entry COc1cc2ncn(-c3cc(OCc4sccc4Cl)c(C(N)=O)s3)c2cc1OC
## Result 1

## Task Below 5% on %Inh? Entry CN1c2ccc(CNc3ccc(F)cc3)cc2-c2c(cnn2C)S1(=O)=O
## Result 0

## Task Below 5% on %Inh? Entry CCc1ccnc(/C=C/c2n[nH]c3cc(Sc4ccccc4C(=O)NC)ccc23)c1
## Result 1

## Task Below 5% on %Inh? Entry O=C1Cc2cc(Nc3nc(NCc4cccc(S(=O)(=O)C(F)(F)F)c4)ncc3C(F)(F)F)ccc2N1
## Result 1

* * *

# Test system: BRK
# Construct: gene PTK6
# MEASUREMENT_PARAMETERS: concentration: 1 μM, replicates: in singlicate; n = 1
I'd be grateful if you could share measured %Inh for these entries.
// note: answer is a bare numeric in %

# %Inh measured on BRK for item Cc1ccc(C(=O)NCC(N)=O)cc1-n1c(C)cc(OCc2ccc(F)cc2F)c(Br)c1=O = 23

# %Inh measured on BRK for item CCc1nc(-c2cccc(C)c2)c(-c2ccnc(NCc3ccccc3)c2)s1 = 0

# %Inh measured on BRK for item Cn1ccc2ncnc(Oc3ccc(NC(=O)Nc4ccncc4)c(Cl)c3)c21 = 0

* * *

# Test system: ABL1-phosphorylated
# MEASUREMENT_PARAMETERS: concentration: 1 μM, replicates: in singlicate; n = 1
I'd be grateful if you could share measured %Inh for these entries.
// note: answer is a bare numeric in %

Entry Cc1c(Cn2c(C)nn3c(=O)cc(N4CCOC(C)C4)nc23)cccc1C(F)(F)F (stereo not drawn) — recorded %Inh = 0

Entry CN(C(=O)c1ccc(-c2cc(-c3c[nH]nc3-c3ccccn3)ccn2)cc1)C1CCOCC1 — recorded %Inh = 0

Entry O=C(NCCNc1ccnc(Nc2ccc(F)cc2)n1)Nc1ccccc1F — recorded %Inh = 0

Entry NS(=O)(=O)c1cccc(-c2ccc3nccc(-c4cccc(S(N)(=O)=O)c4)c3c2)c1 — recorded %Inh = 15

Entry CNc1ncnc2[nH]ncc12 — recorded %Inh = 11

Entry COc1ccc(Nc2nccc(N3CCC(NC(=O)Nc4cc(C)ccc4C)C3)n2)cc1 (stereo not drawn) — recorded %Inh = 0

Entry Fc1ccc(-c2ncn(CCCN3CCOCC3)c2-c2cccnc2)cc1 — recorded %Inh = 34

Entry Fc1ccc(-c2ncn(CCCN3CCOCC3)c2-c2ccccn2)cc1 — recorded %Inh = 12

Entry Cc1nnc(-c2ccc(C)c(-c3ccc(C(=O)Nc4ccc(NS(C)(=O)=O)cc4)cc3)c2)o1 — recorded %Inh = 0

Entry Nc1nccc(-c2c(-c3ccc(F)cc3)ncn2C2CCN(CC(F)(F)F)CC2)n1 — recorded %Inh = 0

Entry O=C1NC(=O)C(N2CCc3ccccc32)=C1c1cccc(Cl)c1 — recorded %Inh = 0

Entry O=C(NCCCN1CCOCC1)c1cccc(Nc2nccc(Nc3ccc(Oc4ccccc4)cc3)n2)c1 — recorded %Inh = 45

Entry COc1ccc(CNC(=O)NC2CCN(c3ccnc(Nc4ccc(OC)cc4)n3)C2)cc1 (stereo not drawn) — recorded %Inh = 0

Entry COc1ccc(Nc2ncc(C#N)c(Nc3ccccc3C(N)=O)n2)cc1N1CCN(C)CC1.Cl — recorded %Inh = 100

Entry COc1cc2c(cc1OCCN1CCN(C)CC1)ncc1c3ccc(C#N)cc3[nH]c21 — recorded %Inh = 69

Entry O=C(Nc1n[nH]c2cc(-c3cccc(F)c3)ccc12)C1CC1 — recorded %Inh = 43

Entry COc1cc2c(cc1OC[C@@H](O)CO)ncc1c3ccc(C#N)cc3[nH]c21 — recorded %Inh = 21

Entry CC(C)Oc1ccc2c(-c3ccnc(Nc4ccc(N5CCN(C)CC5)cc4)n3)cnn2n1 — recorded %Inh = 53
